The reader will find reported melting point values listed item by item below.
MEASURED PROPERTY: melting point

compound=Nc1cccc(-c2cccnc2)n1 result="108 °C"
compound=CC(C)c1nc(C(C)C)c(CSc2cccc(F)c2)c(-c2ccc(F)cc2)c1CO result="99 to 100 °C"
compound=COc1cccc(Oc2c(NS(=O)(=O)c3ccc(C(C)(C)C)cc3)ncnc2OCCOc2ncc(Br)cn2)c1 result="168 °C"
compound=CCC1(NC(=O)CCl)COCOC1 result="89 to 95 °C"
compound=COC(=O)c1ccc(-c2ncc(-c3ccc4c(c3)C(C)(C)CCC4(C)C)o2)cc1 result="153 to 155 °C"
compound=O=C1Nc2ccc(-c3cccc(Cl)c3)cc2C(C2CC2)(C2CC2)O1 result="198 to 200 °C"
compound=CN1CCN(c2ccc(Nc3nc(N)c(C(=O)c4c(F)cccc4F)s3)cc2)CC1 result="168 to 170 °C"
compound="CCCCCC(COc1ccc(C(=O)O)cc1)c1ccc2c(c1)SCCC2(C)C (stereo not given)" result="123 to 124 °C"
compound="CN1C(=O)SC(Cc2cn(-c3ccccc3)nc2O)C1=O (stereo not given)" result="233 to 234 °C"
compound=O=C1CCc2c1ccc1c2CCc2ccccc2-1 result="127 to 128 °C"
compound="COc1ccc(C(O)CNCc2cccc([N+](=O)[O-])c2)cc1OC (stereo not given)" result="105 to 107 °C"
compound=CCOCC(=O)SSc1ccc([N+](=O)[O-])cc1C(Cl)(Cl)Cl result="89 °C"
compound=O=C(NC1=Nc2cc(OCCn3cccc3)ccc2C2=NCCN12)c1cccnc1 result="209 °C"
compound=CCOC(=O)c1cn(CC)c2nc3ccccc3n2c1=O result="252 to 253 °C"
compound=Cc1nnc(CNC(=O)CCl)n1-c1ccc(Cl)cc1C(=O)c1ccccc1 result="140 to 141 °C"
compound=Nc1ccc2c(c1)CN1CC(=O)NC1=N2 result="> 275 °C"
compound="COc1cc(N)c(Cl)cc1C(=O)NCC12CCCN(CC1)C2 (stereo not given)" result="185 to 187 °C"
compound=Cc1cc(SCc2ccc(-c3ccc(C(F)(F)F)cn3)cc2)c2c(c1OCC(=O)O)CCC2 result="186 °C"
compound=CCCCCCCCCc1nnc(C2=C(OC(C)=O)c3ccccc3S(=O)(=O)N2C)o1 result="118 to 119 °C"
compound=COc1ccc(C2(c3ccc(OC)cc3)CCN(C[C@H]3CN(C)[C@@H]4Cc5c[nH]c6cccc(c56)[C@@]4(OC)C3)CC2)cc1 result="215 to 222 °C"
